System: polyoma virus transformed BHK21/c13 cells, line S100T1
experiment notes: Collocation inhibition test: clonal growth in sparsely and densely seeded areas of a cell density gradient of S100T1 cells in soft agar (Exp 13, 17, 19-26)
measurement setup: Exp 17; b: sparsely seeded areas in the same agar culture; High: Colchicine 1, Podophyllotoxin 3, Etoposide 200, 4-OH—OPB 6.7 μM in wells, DMSO 29.2 μl
readout type: Clonal growth, results read on the day 14

compound="COc1cc([C@@H]2c3cc4c(cc3[C@H](O)[C@H]3COC(=O)[C@H]23)OCO4)cc(OC)c1OC [Podophyllotoxin]" value_reported=(+)
compound="COc1cc([C@@H]2c3cc4c(cc3[C@@H](O[C@@H]3O[C@@H]5CO[C@@H](C)O[C@H]5[C@H](O)[C@H]3O)[C@H]3COC(=O)[C@H]23)OCO4)cc(OC)c1O [Etoposide, reference compound]" value_reported=(+)
compound="CCCCC1(O)C(=O)N(c2ccccc2)N(c2ccc(O)cc2)C1=O (stereo not shown) [4-OH-OPB]" value_reported=−
compound="COc1cc2c(c(OC)c1OC)-c1ccc(OC)c(=O)cc1[C@@H](NC(C)=O)CC2 [Colchicine, reference compound]" value_reported=(+)

====

Tested on: polyoma virus transformed BHK21/c13 cells, line S100T1
experiment notes: Collocation inhibition test: clonal growth in sparsely and densely seeded areas of a cell density gradient of S100T1 cells in soft agar (Exp 13, 17, 19-26)
measurement setup: Exp 21; Low concentration; L: area with low cell density
Starred links: 1 amine or outer side, 2 acyl side, 3 side chain; linkers in the order of their positions; H or OH if unused. Positions of bridges follow the written chain, without caps; N, C: chain ends. Non-standard residues stand in square brackets, D forms with d. Residues, ends and D or L forms follow the SMILES beside them. Chains are numbered I, II in the order given. Actinocin(9to1) = Cc1c2oc3c(C)ccc(C(=O)[*:1])c3nc-2c(C(=O)[*:2])c(N)c1=O; NMeV = CN[C@H](C(=O)O)C(C)C; Sar = CNCC(=O)O
readout type: Clonal growth

compound="Nc1ccn([C@@H]2O[C@H](CO)[C@@H](O)[C@@H]2O)c(=O)n1 [Cytarabin, reference compound]" value_reported=+
compound="O=c1[nH]cc(F)c(=O)[nH]1 [Fluorouracil, reference compound]" value_reported=+
compound="Cc1c2oc3c(C)ccc(C(=O)N[C@@H]4C(=O)N[C@H](C(C)C)C(=O)N5CCC[C@H]5C(=O)N(C)CC(=O)N(C)[C@@H](C(C)C)C(=O)O[C@@H]4C)c3nc-2c(C(=O)N[C@@H]2C(=O)N[C@H](C(C)C)C(=O)N3CCC[C@H]3C(=O)N(C)CC(=O)N(C)[C@@H](C(C)C)C(=O)O[C@@H]2C)c(N)c1=O [Actino-mycin D, Actinomycin D, reference compound] (I: T[dV]P[Sar][NMeV] / II: T[dV]P[Sar][NMeV]; ester I:1-I:C, II:1-II:C; linker I:N-II:N via Actinocin(9to1))" value_reported=+
compound="CCCCC1(O)C(=O)N(c2ccccc2)N(c2ccc(O)cc2)C1=O (stereo not shown)" value_reported=+−

====

System: polyoma virus transformed BHK21/c13 cells, line S100T1
experiment notes: Collocation inhibition test: clonal growth in sparsely and densely seeded areas of a cell density gradient of S100T1 cells in soft agar (Exp 13, 17, 19-26)
measurement setup: 4-OH-OPB analogues; S100T1 in soft agar; low concentration
readout type: Clonal growth, L: low density area of cell gradient, Low

molecule="CCCCC1(O)C(=O)N(c2ccccc2)N(c2ccc(OC)cc2)C1=O (stereo not drawn)" experimental_system="polyoma virus transformed BHK21/c13 cells, line S100T1" value_reported=++
molecule=CCCCC1(O)C(=O)N(c2ccccc2)N(c2ccccc2)C1=O experimental_system="polyoma virus transformed BHK21/c13 cells, line S100T1" value_reported=++
molecule="O=C1N(c2ccccc2)N(c2ccccc2)C(=O)C1(O)CC[S+]([O-])c1ccccc1 (stereo not drawn)" experimental_system="polyoma virus transformed BHK21/c13 cells, line S100T1" value_reported=++
molecule="CCCCC(C(=O)Nc1ccccc1)C(=O)Nc1ccc(O)cc1 (stereo not drawn)" experimental_system="polyoma virus transformed BHK21/c13 cells, line S100T1" value_reported=++
molecule="CCCCC(=O)C(=O)Nc1ccccc1 [#3, 2-oxo-hexanoic acid phenylamide]" experimental_system="polyoma virus transformed BHK21/c13 cells, line S100T1" value_reported=++(+)
molecule="CCCCC(O)(C(=O)Nc1ccccc1)C(=O)Nc1ccc(O)cc1 (stereo not drawn)" experimental_system="polyoma virus transformed BHK21/c13 cells, line S100T1" value_reported=++

====

Test system: polyoma virus transformed BHK21/c13 cells, line S100T1
experiment notes: Collocation inhibition test: clonal growth in sparsely and densely seeded areas of a cell density gradient of S100T1 cells in soft agar (Exp 13, 17, 19-26)
measurement setup: Exp 17; b: sparsely seeded areas in the same agar culture; Low: Colchicine 0.1, Podophyllotoxin 0.3, Etoposide 20, 4-OH—OPB 0.67 μM in wells, DMSO 1.16 μl
readout type: Clonal growth, results read on the day 14

compound=C[S+](C)[O-] value_reported=++
compound="COc1cc([C@@H]2c3cc4c(cc3[C@@H](O[C@@H]3O[C@@H]5CO[C@@H](C)O[C@H]5[C@H](O)[C@H]3O)[C@H]3COC(=O)[C@H]23)OCO4)cc(OC)c1O [Etoposide, reference compound]" value_reported=(+)
compound="CCCCC1(O)C(=O)N(c2ccccc2)N(c2ccc(O)cc2)C1=O (centres unmarked)" value_reported=+
compound=COc1cc([C@@H]2c3cc4c(cc3[C@H](O)[C@H]3COC(=O)[C@H]23)OCO4)cc(OC)c1OC value_reported=+
compound="COc1cc2c(c(OC)c1OC)-c1ccc(OC)c(=O)cc1[C@@H](NC(C)=O)CC2 [Colchicine, reference compound]" value_reported=++

====

System: polyoma virus transformed BHK21/c13 cells, line S100T1
experiment notes: Collocation inhibition test: clonal growth in sparsely and densely seeded areas of a cell density gradient of S100T1 cells in soft agar (Exp 13, 17, 19-26);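 for Clonal growth, L low density area of cell gradient, Medium: grades rise with clonal growth and minus or plus-minus means none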
measurement setup: preliminary results, Exp 13-18, 21-26; medium concentration
readout type: Clonal growth, L low density area of cell gradient, Medium

compound="O=P1(N(CCCl)CCCl)NCCCO1 (stereo not shown) [Cyclophosphamide, reference compound]" value_reported=++
compound="COc1cc([C@@H]2c3cc4c(cc3[C@@H](O[C@@H]3O[C@@H]5CO[C@@H](C)O[C@H]5[C@H](O)[C@H]3O)[C@H]3COC(=O)[C@H]23)OCO4)cc(OC)c1O [Etoposide, reference compound]" value_reported=(+)
compound="c1ccc2c(c1)cc1ccc3cccc4ccc2c1c34 [Benzo(a)pyrene, reference compound]" value_reported=++
compound="Cn1cnc([N+](=O)[O-])c1Sc1ncnc2nc[nH]c12 [Azathioprin, reference compound]" value_reported=++
compound="CN(C)c1nc(N(C)C)nc(N(C)C)n1 [Altretamine, reference compound]" value_reported=++
compound="COc1cc2c(c(OC)c1OC)-c1ccc(OC)c(=O)cc1[C@@H](NC(C)=O)CC2 [Colchicine, reference compound]" value_reported=−
compound=COc1cc([C@@H]2c3cc4c(cc3[C@H](O)[C@H]3COC(=O)[C@H]23)OCO4)cc(OC)c1OC value_reported=+

====

System: polyoma virus transformed BHK21/c13 cells, line S100T1
experiment notes: Collocation inhibition test: clonal growth in sparsely and densely seeded areas of a cell density gradient of S100T1 cells in soft agar (Exp 13, 17, 19-26);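 note: soft agar cultures in 24-well plates with a cell density gradient in the top layer, compounds applied from DMSO stocks, clonal growth scored in sparse versus dense areas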
measurement setup: Summary Table 3 of analogue tests (experiments 22-25); L (low cell density); High concentration
readout type: Clonal growth

compound="CCCCC(O)(C(=O)Nc1ccccc1)C(=O)Nc1ccc(O)cc1 (centres unmarked) [#2]" experimental_system="polyoma virus transformed BHK21/c13 cells, line S100T1" readout_type="Clonal growth" value_reported=−
compound="CCCCC(=O)C(=O)Nc1ccccc1 [#3, 2-oxo-hexanoic acid phenylamide]" experimental_system="polyoma virus transformed BHK21/c13 cells, line S100T1" readout_type="Clonal growth" value_reported=++
compound="CCCCC1(O)C(=O)N(c2ccccc2)N(c2ccc(OC)cc2)C1=O (centres unmarked) [#7]" experimental_system="polyoma virus transformed BHK21/c13 cells, line S100T1" readout_type="Clonal growth" value_reported=(+)
compound="Cc1ccc(C2(O)C(=O)N(c3ccccc3)N(c3ccccc3)C2=O)cc1 [#8]" experimental_system="polyoma virus transformed BHK21/c13 cells, line S100T1" readout_type="Clonal growth" value_reported=+
compound="O=C1N(c2ccccc2)N(c2ccccc2)C(=O)C1(O)Cc1ccccc1 [#9]" experimental_system="polyoma virus transformed BHK21/c13 cells, line S100T1" readout_type="Clonal growth" value_reported=+
compound="O=C1N(c2ccccc2)N(c2ccccc2)C(=O)C1(O)CC[S+]([O-])c1ccccc1 (centres unmarked) [#6]" experimental_system="polyoma virus transformed BHK21/c13 cells, line S100T1" readout_type="Clonal growth" value_reported=−
compound="Oc1ccc(N=Nc2ccccc2)cc1 [#1, p-hydroxy-azobenzene]" experimental_system="polyoma virus transformed BHK21/c13 cells, line S100T1" readout_type="Clonal growth" value_reported=+−
compound="CCCCC1(O)C(=O)N(c2ccccc2)N(c2ccccc2)C1=O [#11]" experimental_system="polyoma virus transformed BHK21/c13 cells, line S100T1" readout_type="Clonal growth" value_reported=++

Where these numbers come from: patent US20060121449A1
